# System: Foxtail, Giant (giant foxtail, Setaria faberi)
# Assay details: Test A1 preemergence, Foxtail, Giant
# Type: in vivo
# Experimental conditions: 125 g ai/ha, 0 to 100 scale, 0 no effect, 100 complete control
Values of Plant response rating, Foxtail, Giant greater than or equal to 90 map to yes; values below map to no.

compound="CCc1cc(C)c(N(COC(=O)C(C)(C)C)S(=O)(=O)C(F)(F)F)cc1C1=NOC2CCCC12 (centres unmarked) [Compound 378]" target_of_assay="Foxtail, Giant (giant foxtail, Setaria faberi)" assigned_label=no

Query: # check: Plant response rating, Foxtail, Giant of Cc1cc(C(F)(F)F)c(C2=NOC3CCCC23)cc1NS(=O)(=O)C(F)(F)F (centres unmarked) [Compound 306] is greater than or equal to 90
Response: no

Query: # check: Plant response rating, Foxtail, Giant of Cc1cc(C)c(N(COC(=O)N(C)C)S(=O)(=O)C(F)(F)F)cc1C1=NOC2CCCC12 (centres unmarked) [Compound 317] is greater than or equal to 90
Response: no

Hey, just so you know, these numbers are from patent US20230278972A1.
